Before we begin, note that these IC50 values for Aldo-keto reductase family 1 member B1 (Homo sapiens) originate from several publications.
Numbers only here, please. The scale is µM.

- molecule: "CC(C)=CCC/C(C)=C/CCC1=C[C@H](c2ccccc2)OC1=O"
  unitTag: "µM"
  IC50: 56.1
- molecule: "O=C(O)Cc1nn(Cc2cc3ccccc3o2)c(=O)c2cscc12"
  unitTag: "µM"
  IC50: 0.057

Q: Reported IC50 for `O=C1NC(=O)C2(N1)c1ccccc1-c1ccccc12` : what is it?
Result: 1.2

Q: What would you report for `CC(C)=CCCC1=C[C@@H](c2cc(O)ccc2O)OC1=O` ?
Result: 67.5

Q: What would you report for `O=C(O)Cn1c2c(c3ccccc31)CCN(Cc1ccco1)C2=S` ?
Result: 16.3

Q: What would you report for `COCOc1ccccc1[C@@H]1C=C(CC/C=C(\C)CCC=C(C)C)C(=O)O1` ?
Result: 40.2

Q: What would you report for `O=C(O)Cn1c2c(c3ccccc31)CCN(C(=O)c1cc(F)c(F)c(F)c1)C2=O` ?
Result: 55.3

Q: What would you report for `O=C(O)Cn1c2c(c3ccc(Cl)cc31)CCN(Cc1ccc(Br)cc1F)C2=S` ?
Result: 27.4

Q: What would you report for `O=C(O)Cn1c2c(c3ccccc31)CCN(Cc1cccs1)C2=S` ?
Result: 7.6

Q: What would you report for `O=C(O)Cc1csc(Cc2nc3c(F)c(F)cc(F)c3s2)n1` ?
Result: 0.13
